- Tested on: MCF-7
- ASSAY NOTES: Growth inhibition of breast cancer cell line MCF-7 (Alamar Blue)
- Assay type: cell-based
- EXPERIMENTAL CONDITIONS: Homo sapiens, MCF7, 120 h, read-out: Half inhibitory concentration (IC50) against MCF-7
Under this convention, rule met denotes IC50 strictly below 70 nM and rule not met denotes IC50 at or above 70 nM.

Would you please look over these solved cases?
COMPOUND	CATEGORY LABEL
Nc1ccc(-c2nc3cc(F)ccc3[se]2)cc1F [Compound 34]	rule met
Cc1cc(-c2nc3cc(F)ccc3[se]2)ccc1N [Compound 17]	rule not met
Cc1ccc(-c2nc3cc(F)ccc3[se]2)cc1N [Compound 37]	rule not met
Nc1ccc(-c2nc3cc(F)ccc3[se]2)cc1Br [Compound 14]	rule not met

Task item: Find out if reported IC50 for Nc1ccc(-c2nc3ccccc3[se]2)cc1Br [Compound 7, 4-(benzoselenazole-2-yl)-2-bromoaniline] is less than 70 nM
Reply: rule met

Task item: Find out if reported IC50 for Nc1c(F)cc(-c2nc3cc(F)ccc3[se]2)cc1F [Compound 41] is less than 70 nM
Reply: rule met

Task item: Find out if reported IC50 for Cc1cc(-c2nc3cc(F)ccc3[se]2)cc(Br)c1N [Compound 18] is less than 70 nM
Reply: rule not met

Task item: Find out if reported IC50 for Cc1ccc2[se]c(-c3ccc(N)c(C)c3)nc2c1 [Compound 26] is less than 70 nM
Reply: rule not met

Task item: Find out if reported IC50 for Nc1c(F)cc(-c2nc3cc(F)ccc3[se]2)cc1Br [Compound 35] is less than 70 nM
Reply: rule met

Where do the numbers come from? From patent US10005744B2.
